targetSystem: SARS-CoV-2 M^pro (Severe acute respiratory syndrome coronavirus 2)
methodSummary: FRET-based enzymatic assay, SARS-CoV-2 Mpro
Type: biochemical
assayConditions: read-out: SARS-CoV-2 M^pro IC50; Table 2
measuredQuantity: IC50 (nM)
Form entry: value (nM) — number only.

### Prompt Lab note: need IC50 with SARS-CoV-2 M^pro (Severe acute respiratory syndrome coronavirus 2) for entry CC(C)C[C@H](NC(=O)OCc1ccccc1)C(=O)N[C@@H](C[C@@H]1CCNC1=O)C(=O)C(=O)NC1CC1 , please look it up.
### Response 45

---

targetSystem: SARS-CoV-2 M^pro (Severe acute respiratory syndrome coronavirus 2)
methodSummary: FRET-based enzymatic assay, SARS-CoV-2 Mpro
Format: biochemical
measuredQuantity: pIC50
A value of pIC50 is the negative decimal logarithm of a concentration given in moles per litre.

Reference set, count: 3
C#CCCC(=O)Nc1ccc(COC(=O)N[C@@H](CC(C)C)C(=O)N[C@@H](C[C@@H]2CCNC2=O)C(=O)C(=O)NC2CC2)cc1; 6.82
CC(C)C[C@H](NC(=O)OCC1CCC(F)(F)CC1)C(=O)N[C@@H](C[C@@H]1CCNC1=O)C(=O)C(=O)NC1CC1; 7.22
O=C(N[C@H](C(=O)N[C@@H](C[C@@H]1CCNC1=O)C(=O)C(=O)NC1CC1)C1CCCCC1)OCc1ccccc1; 6.42

Let us move to another entry and its pIC50.
### Prompt Reported pIC50, molecule CC1(C)[C@@H]2C(C(=O)N[C@@H](C[C@@H]3CCNC3=O)C(=O)C(=O)NC3CC3)N(C(=O)OCc3ccccc3)C[C@@H]21 (stereo partly shown) : ____
### Response 6.70

---

Tested on: HCoV-OC43
methodSummary: HCoV-OC43 plaque assay
Type: cell-based
assayConditions: Betacoronavirus 1, OC43, RD cells
measuredQuantity: EC50 (µM)
Form entry: value (µM) — number only.

CC1(C)C2CN(C(=O)OCc3ccccc3)C(C(=O)NC(C=O)CC3CCNC3=O)C21 (centres unmarked); 0.059

Let us move to another entry and its EC50.
### Prompt Reported EC50, compound O=CC(CC1CCNC1=O)NC(=O)C1C2CCCC2CN1C(=O)OCc1ccccc1 (centres unmarked) : ____
### Response 0.046
